Just for reference, PubChem BioAssay (NCI) is where these values come from.

- Procedure summary: NCI Yeast Anticancer Drug Screen. Data for the sgs1 mgt1 strain (AID 161);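 further: 0% = growth of cultures given vehicle only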
- Condition info: S. cerevisiae sgs1 mgt1 strain, at 50.0 µM
The panel holds about 79,000 compounds, 15% with a hit somewhere; the sample as a whole holds those more often. Calls of active or inactive are those of the source. No stated cut-off is given here; in the data, active means growth inhibition above about 70%; inactive means the rest.
Pick from active, inactive when you respond.

Recorded results for 2 compounds are shown here.
| Compound | Class name |
| --- | --- |
| CC(C)(C)/[N+]([O-])=C/C(c1ccccc1)C(/C=[N+](/[O-])C(C)(C)C)c1ccccc1 (stereo unspecified) | inactive |
| OCCNc1nc(NCCO)c2cn[nH]c2n1 | inactive |

## Task Called result for `O=C1c2ccccc2C(=O)c2c(Cl)cccc21`
## Result inactive

## Task Called result for `O=C(CCN1CCCC1)Nc1ccc2sc3ccccc3c(=O)c2n1`
## Result inactive

## Task Called result for `NC(=S)c1cc[n+]([O-])cc1`
## Result inactive

---

- Procedure summary: NCI Yeast Anticancer Drug Screen. Data for the cln2 rad14 strain (AID 165);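 further: 0% = growth equal to vehicle treated cultures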
- Condition info: S. cerevisiae cln2 rad14 strain, at 50.0 µM
Compounds without any hit were thinned out: in the full panel of roughly 79,000, 15% have a hit. Active and inactive are the calls of the source. Cut-off read from the data, not from the text of the source: active = growth inhibition above about 70%; inactive = the rest.
Pick from 1 = active, 0 = inactive when you respond.

Recorded results for 5 compounds are shown here.
| Compound | Class name |
| --- | --- |
| O=C(O)C#Cc1ccccc1 | 0 |
| COc1ccc(/C=C/C(CC(NO)c2ccc(OC)cc2)=N\O)cc1 (centres undefined) | 0 |
| COC(=O)c1ccccc1C1CN=NC12Cc1c(ccc3c1CCC3)C2=O (centres undefined) | 0 |
| O=C(OCC(OC(=O)c1ccccc1)C(OC(=O)c1ccccc1)C(O)C(O)CO)c1ccccc1 (centres undefined) (tested in a mixture with another compound) | 0 |
| Cc1cc(=O)n2c(cc3cccccc32)n1 | 0 |

## Task Called result for `CCc1cccc(C)c1N1C(=O)C(=O)C(c2nc3ccccc3o2)C(=O)C1=O`
## Result 0

## Task Called result for C/C(=C/C=C(c1ccccc1)c1ccccc1)C1CCC2C3CCC4CC5CCC4(C)C3(O5)C(=O)CC12C (centres undefined)
## Result 1

## Task Called result for `Cc1cc(C)nc(N)c1`
## Result 0

## Task Called result for NC(CCCCNC(=O)OCc1ccccc1)C(=O)OCc1ccccc1 (centres undefined)
## Result 0

## Task Called result for `O=C(O)CCSc1nc2c(=O)[nH][nH]c(=O)c2n1Cc1ccccc1`
## Result 0

## Task Called result for `O=C1OC(c2cccc(Cl)c2)=N/C1=C\c1ccc(O)cc1`
## Result 0

## Task Called result for `COC[N+](C)(C)C`
## Result 0

## Task Called result for `S=C1CSc2c(cnc3ccccc23)N1`
## Result 0

## Task Called result for `CC1=Nc2ccc(C)cc2N=C(C)C1`
## Result 0

## Task Called result for `O=C(NCc1cccc2ccccc12)Nc1ccccc1Cl`
## Result 0

## Task Called result for `C=CCNC(=S)N(C)Cc1ccccc1Cl`
## Result 0

## Task Called result for `CC1(c2ccccc2)SCCS1`
## Result 0

## Task Called result for `CC(=O)C(C(C)=O)C(c1cccnc1)C(C(C)=O)C(C)=O`
## Result 0

---

- Procedure summary: NCI Yeast Anticancer Drug Screen. Data for the bub3 strain (AID 167)
- Condition info: S. cerevisiae bub3 mutant strain, at 50.0 µM, hits give high values
The panel holds about 79,000 compounds, 15% with a hit somewhere; the sample as a whole holds those more often.
Below: a set of entries, each annotated with reported growth inhibition.
Provide only the numeric value, understood in %.

Study these solved cases before continuing.
| Molecule | Numeric result |
| --- | --- |
| C=C(C)[C@@]1(OC(=O)c2cc([N+](=O)[O-])cc([N+](=O)[O-])c2)C[C@@H]2CCCC[C@@H]21 | -7.9 |
| COc1cc(Cn2c(=S)ss/c2=N\C(=S)N(C)C)cc(OC)c1OC | -2.25 |
| O=C(OC1OC(COCc2ccccc2)C(OCc2ccccc2)C1OCc1ccccc1)c1ccc([N+](=O)[O-])cc1 (stereo not given) | -5.3 |

## Task Name the reported growth inhibition value associated with the molecule CCCCCCCCCCNC(=O)C(OC(C)=O)C(OC(C)=O)C(OC(C)=O)C(COC(C)=O)OC(C)=O (stereo not given)
## Result 10.2

## Task Name the reported growth inhibition value associated with the molecule `CN(C)CCSS(=O)(=O)O`
## Result -19.1

## Task Name the reported growth inhibition value associated with the molecule `Cc1ccc(C(=N)c2ccccc2Cc2ccccc2)cc1`
## Result 3.9

## Task Name the reported growth inhibition value associated with the molecule `Nc1ncnc2c1ncn2C[c-]1[c-][c-][c-][c-]1.[Fe].[c-]1[c-][c-][cH-][c-]1`
## Result -15.7

## Task Name the reported growth inhibition value associated with the molecule `CCNC(=O)COc1ccc(Br)cc1Br`
## Result 8.4

## Task Name the reported growth inhibition value associated with the molecule `CC(=O)Nc1cc(Cl)c(Oc2ccccc2)cc1[N+](=O)[O-]`
## Result 52

## Task Name the reported growth inhibition value associated with the molecule CN(C)C1CCC(C=C(C2CCC(CC(=O)O)CC2)C2CCC(CC(=O)O)CC2)CC1 (stereo not given)
## Result 1.05
